- Test system: SF-539 CNS
- Method Notes: NCI tumour cell line growth inhibition, 48 h; in the data active means GI50 below about 0.43 µM; inactive means the rest
One label from this list, please: active, inactive

Examples from the recorded data:
Molecule Smiles: O=C(CN1CCN(c2ncnc3ccccc23)CC1)Nc1ccc(Cl)cc1C(=O)c1ccccc1Cl
Cat: active
//
Molecule Smiles: CCCN(CCC)C(=O)C1=Cc2ccc(-c3ccc(C(=O)N4CCCC4)cc3)cc2N=C(N)C1
Cat: inactive

Q) Given COc1cc2c3c(n(CCCCOC(=O)C(F)(F)F)c(=O)c2cc1OC)-c1cc2c(cc1C3=O)OCO2 , state the outcome it received in this test.
A) inactive

Q) Record lookup: outcome of this test for C1=Cc2ccccc2Nc2ccccc21 ?
A) inactive

Q) # outcome recorded in this test, key = Cn1nccc1Nc1nccc(-c2cc3c(s2)C(C)(C)N(CCN2CCOCC2)C3=O)n1
A) inactive

Q) Assay result, entry O=c1c2cccc(Cl)c2sc2c(NCCCNCCO)nc3ccccc3c12 — outcome?
A) inactive

Q) Tell me the recorded outcome of this test for CC1=CC(=NC(=O)CBr)C=C/C1=N\S(=O)(=O)c1ccccc1 .
A) inactive

---

- System: A498 renal
- Method Notes: NCI tumour cell line growth inhibition, 48 h
Measured Endpoint: TGI

Molecule: O=C1/C(=C\c2ccc(Cl)cc2Cl)Sc2scc(-c3cccc([N+](=O)[O-])c3)[n+]21
Test Target: A498 renal
Value Reported: > 100 µM
--
Molecule: C/C(=C\C(C)COCc1ccccc1)[C@H](COCc1ccccc1)OCc1ccccc1 (some centres not stated)
Test Target: A498 renal
Value Reported: > 100 µM
--
Molecule: COC(=O)C1=C(O)c2cc(OC)c(OC)c(OC)c2[C@H](c2cc(OC)c(OC)c(OC)c2)C1C(=O)OC (some centres not stated)
Test Target: A498 renal
Value Reported: > 100 µM
--
Molecule: O=c1/c(=C/c2cccc([N+](=O)[O-])c2)sc2nc3ccccc3n12
Test Target: A498 renal
Value Reported: > 100 µM
--
Molecule: O=C(O)/C=C/n1c2ccccc2c(=O)c2ccccc21
Test Target: A498 renal
Value Reported: > 100 µM
--
Molecule: COCc1nc2c(OC)cc(-c3nc4nc(N5CCN(C)CC5)ccc4[nH]3)c(OC)c2[nH]1
Test Target: A498 renal
Value Reported: > 100 µM

Batch: TGI for all items listed.
1. OC(c1nc2ccccc2s1)(C(F)(F)F)C(F)(F)F
2. CS(=O)(=O)NNS(=O)(=O)c1cccc([N+](=O)[O-])c1
3. N#Cc1c(-c2ccc(Cl)cc2)cc(-c2ccc(Nc3ccnc4cc(C(F)(F)F)ccc34)cc2)[nH]c1=O
4. COC(=O)/C=C/c1ccc2c(c1)CCC2

A)
["> 100 µM", "> 100 µM", "> 89.6 µM", "> 100 µM"]

Go through the items and report each one's TGI.
1. CC[C@H](C)[C@H]1NC(=O)[C@@H](N[C@](C)(O)[C@@H](N)CC(C)C)[C@@H](C)OC(=O)[C@H](Cc2ccc(OC)cc2)N(C)C(=O)[C@@H]2CCCN2C(=O)[C@H](CC(C)C)NC(=O)[C@@H](C)C(=O)[C@H](C(C)C)OC(=O)C[C@@H]1O
2. COc1cc(-c2nc(Nc3nc4ccccc4[nH]3)nc(N)c2C#N)cc(OC)c1OC
3. C=C(C)C1CC=C(C)[C@](O)(C2(O)C[C@H](C(=C)C)CC=C2C)C1 (some centres not stated)

A)
0.403 µM
22 µM
> 100 µM

---

Please go through the items and note down their TGI.
- Tested on: HL-60(TB) leukemia
- Method Notes: NCI tumour cell line growth inhibition, 48 h

Examples from the recorded data:
Molecule: Nc1nc(N)c(N=O)c(Nc2ccc(O)cc2)n1
Test Target: HL-60(TB) leukemia
Value Reported: > 71.3 µM
//
Molecule: CCOC(=O)C12CCCC1(O)N(NC(=O)c1ccccc1)C(C)=C2C(=O)OC (stereo not given)
Test Target: HL-60(TB) leukemia
Value Reported: > 100 µM
//
Molecule: N#C/C(=C\c1ccc(-c2ccc(Cl)cc2)o1)C(=O)Nc1ncc(Cc2ccc(Cl)cc2)s1
Test Target: HL-60(TB) leukemia
Value Reported: > 100 µM
//
Molecule: C=CCc1cc(-c2cc(CC=C)c(O)c(CN(CCCl)CCCl)c2)cc(CN(CCCl)CCCl)c1O
Test Target: HL-60(TB) leukemia
Value Reported: > 100 µM

Now look at this one.
Q) Identify TGI associated with the molecule N#Cc1ccc(Oc2nc3ccccc3nc2-c2ccccc2)cc1
A) > 100 µM

---

- Test system: ACHN renal
- Method Notes: NCI tumour cell line growth inhibition, 48 h
Provide the reported TGI of each item.

See these solved cases before continuing.
Compound: Cn1cncc1[C@@](N)(c1ccc(Cl)cc1)c1ccc2c(c1)c(-c1cccc(Cl)c1)cc(=O)n2C
Test Target: ACHN renal
Value Reported: 14.9 µM

Compound: COC(=O)C1=C2CCC(=O)[C@@]2(C)C(OC(C)=O)C=CC1 (stereo not given in full)
Test Target: ACHN renal
Value Reported: > 100 µM

Compound: Cc1c(Cl)ccc2c1NC(=O)C2(O)C(C(=O)c1ccccc1)c1ccccc1 (stereo not given)
Test Target: ACHN renal
Value Reported: > 100 µM

Compound: OC(c1nc2ccccc2s1)(C(F)(F)F)C(F)(F)F
Test Target: ACHN renal
Value Reported: > 100 µM

Compound: CC(=O)N1N=C2/C(=C/c3ccccc3)CC(C)CC2C1c1ccccc1 (stereo not given)
Test Target: ACHN renal
Value Reported: 26.8 µM

Batch: TGI for all items listed.
1. COC(=O)Nc1nc2ccc(Oc3ccc(NC(=O)Nc4cccc(C(=O)O)c4)cc3)cc2[nH]1
2. COc1ccccc1C1SCC(=O)N1c1ccc(-n2c(-c3ccccc3)nc3ccccc3c2=O)cc1 (stereo not given)
3. Cc1cc(NS(=O)(=O)c2ccc(N=Nc3cc(N=Nc4ccc(S(=O)(=O)Nc5cc(C)nc(C)n5)cc4)c4c(NC(=O)C(Cl)Cl)cccc4c3OC(=O)C(Cl)Cl)cc2)nc(C)n1 (tested in a mixture with another compound)
4. O=S(=O)(O)O.[NH-]C1CCCCC1[NH-].[Pt+2] (stereo not given)

A)
1. > 25 µM
2. > 100 µM
3. 56.7 µM
4. > 100 µM

Each compound below has a reported value. Please supply its TGI.
1. COc1ccc2nc(-c3cc(-c4cc(OC)c(OC)c(OC)c4)n[nH]3)[nH]c2c1
2. COc1cccc2c1CCc1ccccc1CC2=O

A)
["10.7 µM", "> 100 µM"]

---

- Test system: LOX IMVI melanoma
- Method Notes: NCI tumour cell line growth inhibition, 48 h
For each record, write down the corresponding TGI.

Solved cases below.
Compound: CC1(c2ccc(F)cc2)CC(c2ccc(F)cc2)=C(C#N)C(=C(C#N)C#N)N1 (centres undefined)
TGI: 38.6 µM
--
Compound: C[C@@H]1CN(C(=O)c2ccc(NC(=O)c3cc(O[C@H](C)c4c(Cl)ccc(F)c4Cl)c(N)nn3)cc2)C[C@H](C)N1
TGI: 3.04 µM
--
Compound: [O-]c1c2c(nn1-c1ccccc1)c1ccccc1c[n+]2Cc1ccccc1
TGI: > 100 µM
--
Compound: OC12c3ccccc3C1(N1CCOCC1)CCCCC21OCCCO1 (centres undefined)
TGI: > 100 µM
--
Compound: CCCCON1C[C@@H](O)C(O)[C@@H](O)C1 (some centres undefined)
TGI: > 100 µM
--
Compound: Oc1ccc(-c2nnc3sc(-c4ccc(F)c(Oc5ccccc5)c4)nn23)cc1
TGI: > 100 µM
--
Compound: CCc1n[nH]c(=S)n1/N=C\c1ccc(-c2ccccc2Cl)o1
TGI: 66.6 µM
--
Compound: C/C(=N\NS(=O)(=O)c1ccc(C)cc1)C(CN1CCOCC1)C(c1ccccc1)c1c(O)c2ccccc2oc1=O (centres undefined)
TGI: > 100 µM
--
Compound: CCOc1ccc(N=NC2C(=O)N(C(=O)CC(=O)Nc3ccccc3OC)N=C2C)cc1 (centres undefined)
TGI: > 100 µM
--
Compound: O=S(=O)(O)O.[NH-]C1CCCCC1[NH-].[Pt+2] (centres undefined)
TGI: > 100 µM

Provide reported TGI for each item, in the same order as listed.
1. COc1ccc(N2C(=O)C3c4[nH]c5ccc(OC)cc5c4C4CCC(C(C)(C)C)CC4C3C2=O)cc1 (centres undefined)
2. CCOC(C)C(/C=N/NC(N)=S)=NNC(N)=S (centres undefined)
3. COc1ccc2cc(C(C)C(O)c3cc(F)c(F)c(F)c3F)ccc2c1 (centres undefined)

A)
> 100 µM
> 100 µM
> 100 µM

---

- Tested on: SF-268 CNS
- Method Notes: NCI tumour cell line growth inhibition, 48 h
Consider the following compounds; for each one, report its TGI.

Answered examples (9):
Compound: Cn1c2ccccc2c(=S)c2ccccc21
TGI: > 100 µM
--
Compound: C[n+]1c(/C=C\c2ccc(Cl)cc2)ccc2ccccc21
TGI: > 100 µM
--
Compound: COCc1nc2c(OC)cc(-c3nc4nc(N5CCN(C)CC5)ccc4[nH]3)c(OC)c2[nH]1
TGI: > 100 µM
--
Compound: COC(=O)CCC(=O)CC(=O)C1=NS(=O)(=O)c2nc(S(N)(=O)=O)c(Cl)cc2N1
TGI: > 100 µM
--
Compound: CC(=O)O[C@H]1C(=O)[C@@]2(C)[C@H]([C@H](OC(=O)c3ccccc3)[C@]3(O)C[C@H](OC(=O)[C@H](OC(=O)OCCC(O)CO)[C@@H](NC(=O)c4ccccc4)c4ccccc4)C(C)=C1C3(C)C)[C@]1(OC(C)=O)CO[C@@H]1C[C@@H]2O (stereo not given in full)
TGI: > 56.9 µM
--
Compound: C[C@H]1O[C@@H](c2c(O)ccc3ccccc23)C[C@@H](N(C)C)C1O (stereo not given in full)
TGI: > 100 µM
--
Compound: CCOC(=O)c1cc2c(ccc3cc(C(=O)OCC)[nH]c32)[nH]1
TGI: > 100 µM
--
Compound: Cn1ccnc1C(=O)/C=C/c1ccc(C(=O)Nc2ccc(Cl)cc2)cc1
TGI: > 33.3 µM
--
Compound: Nc1nc(N)c(N=O)c(Nc2ccc(O)cc2)n1
TGI: > 83.8 µM

Now consider a different compound.
Q) Please indicate TGI recorded for CCOC(=O)C12CCCC1(O)N(NC(=O)c1ccccc1)C(C)=C2C(=O)OC (stereo not given)
A) > 100 µM
